This section presents compounds with their documented RP-LC retention time values.
- experiment_description: gradient 5% acetonitrile 3 min, to 50% in 2 min, to 85% in 15 min, held 3 min, 100 µL/min
- setup_conditions: column: Zorbax Extend-C18 2.1 x 50 mm; eluents: water / acetonitrile, 0.1% formic acid
Kindly answer with a numeric value in s, unit omitted.

As a guide, the following entries are already answered.
- compound: "CCc1onc(C)c1C1CCCN1C(=O)c1cc(-c2ccc3c(c2)OCO3)on1 (stereo not given)"
  RP-LC retention time / s: 928
- compound: "COc1ccc(-c2c(C)noc2NC(C)=O)cc1S(=O)(=O)NCCC1=CCCCC1"
  RP-LC retention time / s: 886
- compound: "Cc1cc(-c2ccc(S(=O)(=O)N3CCC(C(=O)NCc4ccco4)CC3)o2)n[nH]1"
  RP-LC retention time / s: 733
- compound: "Cc1nc(C(=O)Nc2ccc(F)cc2Cl)c(C)o1"
  RP-LC retention time / s: 1040
- compound: "Cc1ccc(-c2ncc(NC(=O)c3ccc(Br)o3)cn2)cc1"
  RP-LC retention time / s: 1030
- compound: "CCCN(CCC)C(=O)C(CCC(=O)O)NC(=O)c1ccccc1 (stereo not given)"
  RP-LC retention time / s: 822

Req: Could you share which RP-LC retention time value was measured for CCc1nc(-c2csc(S(=O)(=O)N3CCC(C(=O)N4CCOCC4)CC3)c2)no1 ?
Resp: 796

Req: Tell me the measured RP-LC retention time of CNC(=O)C1CCCN(c2nc3ncn(CC(=O)Nc4ccc5c(c4)OCCO5)c(=O)c3s2)C1 (stereo not given) , please.
Resp: 627

Req: Would you kindly share the measured RP-LC retention time for CC1CCCCN1c1nc(-c2ccc([N+](=O)[O-])cc2)nc2ccccc12 (stereo not given) ?
Resp: 948

Req: Any idea what RP-LC retention time was measured for O=C(NCc1cccc(F)c1)c1cn2ccncc2n1 ?
Resp: 672

====

- experiment_description: gradient 5% acetonitrile 3 min, to 50% in 2 min, to 85% in 15 min, held 3 min, 100 µL/min
- setup_conditions: column: Zorbax Extend-C18 2.1 x 50 mm; eluents: water / acetonitrile, 0.1% formic acid
Assign yes to entries whose RP-LC retention time meets or exceeds 700 s; assign no to the rest.

Req: Determine whether measured RP-LC retention time meets or exceeds 700 s for C[C@@]1(O)CCN(Cc2cccc(F)c2F)C[C@H]1N1CCCC1
Resp: no

Req: Could you verify whether the entry Cn1c(=O)c2cc(C(=O)NCc3ccc(Cl)cc3)sc2n(C)c1=O shows RP-LC retention time of no less than 700 s?
Resp: yes

Req: Is it the case that COC(=O)c1c(C)[nH]c(C(=O)N2CCC(CC(=O)NCCCN3CCOCC3)CC2)c1C has RP-LC retention time reaching or exceeding 700 s?
Resp: no

Req: Does RP-LC retention time meet or surpass 700 s for Cn1ncc(Cl)c1C(=O)N1CCCC1c1cccc(F)c1 (stereo not given) ?
Resp: yes

Req: Does O=c1c2cc(-c3ccc(Br)cc3)nn2cnn1Cc1nc(-c2ccccc2)no1 have a reported RP-LC retention time of at least 700 s?
Resp: yes

Req: Assess whether reported RP-LC retention time for Cc1ccccc1C(C(=O)NC1CCCCC1)N(C(=O)Cn1ccnc1C)c1cccc(F)c1 (stereo not given) sits at 700 s or higher.
Resp: yes

Req: Determine whether this molecule has RP-LC retention time no lower than 700 s: CCN1C=C(C(=O)OCc2ccc(C)cc2)C(C)=NS1(=O)=O
Resp: yes

Req: RP-LC retention time >= 700 s for O=C(CN1C(=O)CCCc2cc(S(=O)(=O)N3CCCC3)ccc21)N1CCc2ccccc2C1 ?
Resp: yes

Req: Has Cc1nn(C(C)C(=O)NCCN2CCOCC2)c(=O)c2nn(-c3ccccc3)c(C)c12 (stereo not given) a recorded RP-LC retention time greater than or equal to 700 s?
Resp: no

Req: Hi team, for Cc1nc(C)c(C(=O)N2CCC(C(=O)N3CCCCCCNC(=O)CC3)CC2)s1 , is the recorded RP-LC retention time at or above 700 s?
Resp: no

Req: Evaluate Clc1ccc(-c2nc(NC3CCCCC3)c3ccccc3n2)cc1 : RP-LC retention time at minimum 700 s?
Resp: yes

Req: Is the recorded value of RP-LC retention time equal to or greater than 700 s for this molecule? CN1CCN(C(=O)C2CCN(S(=O)(=O)c3cc(-c4noc(C5CCC5)n4)cs3)CC2)CC1
Resp: no

Req: In plain terms: is recorded RP-LC retention time at least 700 s for O=C(NCc1ccc(N2CCOCC2)nc1)c1cc(F)cc(F)c1 ?
Resp: no

Req: Confirm if RP-LC retention time reported for the molecule CN(CCc1noc(COc2ccccc2)n1)C(=O)Nc1ccc(F)c(Cl)c1 is 700 s or above.
Resp: yes

Req: # check: RP-LC retention time of Cc1cc(C)cc(NC(=O)N2CCN(CCn3c(-c4ccncc4)nc4cccnc43)CC2)c1 is greater than or equal to 700 s
Resp: no

====

- experiment_description: gradient 5% acetonitrile 3 min, to 50% in 2 min, to 85% in 15 min, held 3 min, 100 µL/min
- setup_conditions: column: Zorbax Extend-C18 2.1 x 50 mm; eluents: water / acetonitrile, 0.1% formic acid
value_kind: RP-LC retention time (s)
Numbers only here, please. The scale is s.

- molecule: "Cc1ccc(C(=O)N2CC=C(C(=O)NC3CC3)CC2)cc1C"
  RP-LC retention time [s]: 797

Req: Param item = Cc1ccc(-c2ccc(=O)n(Cc3noc(C(=O)N4CCC(C)CC4)n3)n2)cc1 ; retrieve measured RP-LC retention time.
Resp: 977

Req: Any idea what its RP-LC retention time is? The molecule is CC(C)Cn1nc2n(c1=O)CCN(S(=O)(=O)c1cccc3cccnc13)CC2
Resp: 754

Req: Endpoint output: RP-LC retention time of COc1ccc(CNC(=O)C2CCCN(c3nnc4ccc(Cl)cn34)C2)cc1OC (stereo not given) . Value?
Resp: 685

====

- experiment_description: gradient 5% acetonitrile 3 min, to 50% in 2 min, to 85% in 15 min, held 3 min, 100 µL/min
- setup_conditions: column: Zorbax Extend-C18 2.1 x 50 mm; eluents: water / acetonitrile, 0.1% formic acid
Use MET when the recorded RP-LC retention time is no lower than 800 s; use NOT MET when it is lower.

- compound: "CCn1cc(S(=O)(=O)N2CC(Oc3cccc(-c4nc(C)no4)c3)C2)cn1"
  assigned_label: "MET"
- compound: "COCc1noc(CC2CCOC3(CCN(Cc4sccc4C)CC3)C2)n1 (stereo not given)"
  assigned_label: "NOT MET"
- compound: "COc1ccccc1C(=O)NC1(C(F)(F)F)C(=O)N(C2CCCCC2)C(C)=C1C(C)=O (stereo not given)"
  assigned_label: "MET"
- compound: "COc1ccc(Cl)cc1NS(=O)(=O)c1c(C)sc(C)c1-c1cc(C(F)(F)F)on1"
  assigned_label: "MET"
- compound: "O=C(c1nc(-c2cccs2)cs1)N1CCN(c2ccccc2)CC1"
  assigned_label: "MET"

Req: Tell me whether RP-LC retention time is at least 800 s here: Cc1nc(-c2cc(S(=O)(=O)Nc3cccc(Cl)c3F)c(C)s2)cs1
Resp: MET

Req: Quick check: does Cc1cc(S(=O)(=O)NCCc2cn(C)c3ncccc23)ccc1F have RP-LC retention time greater than or equal to 800 s?
Resp: NOT MET

Req: Given O=C(Nc1ccccc1F)N1[C@H]2CC[C@@H]1c1cncnc1C2 , state whether its RP-LC retention time is at least 800 s.
Resp: NOT MET

Req: Kindly determine if RP-LC retention time recorded for COCCN(CC1(C)CCOCC1)C(=O)c1ccc(Cl)cc1 is above or exactly 800 s.
Resp: MET

====

- experiment_description: gradient 5% acetonitrile 3 min, to 50% in 2 min, to 85% in 15 min, held 3 min, 100 µL/min
- setup_conditions: column: Zorbax Extend-C18 2.1 x 50 mm; eluents: water / acetonitrile, 0.1% formic acid
We label by threshold. Values of RP-LC retention time strictly beneath 900 s are criterion met. Values of 900 s and up are criterion not met.

Look over these answered cases.
- compound: "COc1ccc(N2C(=O)CC(N3CCC(C)CC3)C2=O)cc1 (stereo not given)"
  assigned_label: "criterion met"
- compound: "CCn1cc(CCNS(=O)(=O)Cc2ccccc2Cl)c2cccnc21"
  assigned_label: "criterion met"
- compound: "CC(C)Oc1cc(O)c2c(=O)cc(-c3ccccc3)oc2c1"
  assigned_label: "criterion not met"

Attention now shifts to the item below.
Req: Just wondering, is RP-LC retention time of Nc1cc(C2CCN(C(=O)Nc3cccc(Cl)c3F)CC2)no1 below 900 s?
Resp: criterion met
